test system: UO-31; assay: cells; type: functional, cell-based, Homo sapiens; details: uo-31;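 also: cell viability assay measuring inhibition of cell growth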
Description: SANGER: Inhibition of human U031 cell growth in a cell viability assay.
quantity name: pIC50
API: returns pIC50 as number; meaning -log10 of concentration in mol/L.

IN: Quick one: pIC50 for CISPLATIN ?
OUT: 4.89

====

tested on: KS-1; experiment: cells; format: functional, cell-based, Homo sapiens; settings: ks-1;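 also: growth inhibition of KS-1 cells, read out with a cell viability assay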
Description: SANGER: Inhibition of human KS-1 cell growth in a cell viability assay.
quantity name: IC50
Hi, when you answer, please include the unit after the number. Thanks!

IN: Quick one: IC50 for CISPLATIN ?
OUT: 28.3 µM

====

Exercise: state measured IC50 for each of the compounds provided.
test system: T84; assay: cells; assay type: functional, cell-based, Homo sapiens; conditions: Homo sapiens, T84;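 also: growth inhibition measured with a cell viability readout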
Description: SANGER: Inhibition of human T84 cell growth in a cell viability assay.
Give the value in µM but do not write µM after it.

IN: Form field: IC50 recorded for COc1cccc2c1C(=O)c1c(O)c3c(c(O)c1C2=O)C[C@@](O)(C(=O)CO)C[C@@H]3O[C@H]1C[C@H](N)[C@H](O)[C@H](C)O1 [DOXORUBICIN] with T84 (enter value)
OUT: 0.0571

IN: And Cc1cc([N+](=O)[O-])ccc1NS(=O)(=O)c1cc(Cl)ccc1Cl ?
OUT: 4.69

IN: And CC(C)c1ccccc1Cc1cc(C(=O)Nc2ccc(S(=O)(=O)c3ccccc3C(C)(C)C)cc2)c(O)c(O)c1O ?
OUT: 13.9

====

Exercise: state measured IC50 for each of the compounds provided.
system: RERF-LC-MS; assay: cells; format: functional, cell-based, Homo sapiens; details: Homo sapiens, RERF-LC-MS;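 also: growth inhibition of human RERF-LC-MS cells, read out by a cell viability assay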
Description: SANGER: Inhibition of human RERF-LC-MS cell growth in a cell viability assay.
Give the value in µM but do not write µM after it.

IN: Quick one: IC50 for Nc1ccn([C@@H]2O[C@H](CO)[C@@H](O)C2(F)F)c(=O)n1 ?
OUT: 0.177

IN: And CN(C)C(=N)NC(=N)N ?
OUT: 14400

IN: And CC(C)c1ccccc1Cc1cc(C(=O)Nc2ccc(S(=O)(=O)c3ccccc3C(C)(C)C)cc2)c(O)c(O)c1O ?
OUT: 0.0352

====

test system: LU-99A; assay: cells; assay type: functional, cell-based, Homo sapiens; details: lu-99a
Description: SANGER: Inhibition of human LU-99A cell growth in a cell viability assay.
quantity name: IC50 (nM)
Give the value in nM but do not write nM after it.

IN: Quick one: IC50 for BLEOMYCIN ?
OUT: 4.22

IN: And CISPLATIN ?
OUT: 4290

====

tested on: MeWo; experiment: cells; assay type: functional, cell-based, Homo sapiens; details: Homo sapiens, MeWo;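 also: growth inhibition of MeWo cells, determined by a cell viability readout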
Description: SANGER: Inhibition of human Mewo cell growth in a cell viability assay.
Exercise: state measured IC50 for each of the compounds provided.

IN: Quick one: IC50 for Cn1cnc2c(F)c(Nc3ccc(Br)cc3Cl)c(C(=O)NOCCO)cc21 ?
OUT: 521 nM

IN: And Oc1ccc2ccccc2c1SSc1c(O)ccc2ccccc12 ?
OUT: > 32000 nM

IN: And C=C(c1ccc(C(=O)O)cc1)c1cc2c(cc1C)C(C)(C)CCC2(C)C ?
OUT: > 8000 nM

IN: And CCC/C=C/C=C/C(=O)O[C@H]1/C(=C/C(=O)OC)C[C@H]2C[C@H]([C@@H](C)O)OC(=O)C[C@H](O)C[C@@H]3C[C@H](OC(C)=O)C(C)(C)[C@](O)(C[C@@H]4C/C(=C/C(=O)OC)C[C@H](/C=C/C(C)(C)[C@]1(O)O2)O4)O3 ?
OUT: > 8 nM

====

Exercise: state measured pIC50 for each of the compounds provided.
system: IGROV-1; experiment: cells; assay type: functional, cell-based, Homo sapiens; conditions: Homo sapiens, IGROV-1;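 also: reduction of IGROV-1 cell growth, read out with a viability assay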
Description: SANGER: Inhibition of human IGROV-1 cell growth in a cell viability assay.
pIC50: −log10 of the molar value.

IN: Quick one: pIC50 for CCN(CC)CCCCNc1ncc2cc(-c3cc(OC)cc(OC)c3)c(NC(=O)NC(C)(C)C)nc2n1 [PD-173074] ?
OUT: < 5.70

IN: And CO[C@H]1C[C@@H]2CC[C@@H](C)[C@@](O)(O2)C(=O)C(=O)N2CCCC[C@H]2C(=O)O[C@H]([C@H](C)C[C@@H]2CC[C@@H](OC(=O)C(C)(CO)CO)[C@H](OC)C2)CC(=O)[C@H](C)/C=C(\C)[C@@H](O)[C@@H](OC)C(=O)[C@H](C)C[C@H](C)/C=C/C=C/C=C/1C [TEMSIROLIMUS] ?
OUT: 7.41

IN: And Oc1ccc2ccccc2c1SSc1c(O)ccc2ccccc12 ?
OUT: < 4.49

IN: And CN(C)C(=N)NC(=N)N [METFORMIN] ?
OUT: < 1.70

IN: And Nc1cccc2c1CN(C1CCC(=O)NC1=O)C2=O (stereo not given) [LENALIDOMIDE] ?
OUT: < 5.30
